molecular target: LIMK1 (LIMK1_330–637, kinase catalytic domain) (Homo sapiens); details: 40 nM LIMK1 catalytic domain, 4 μM CFL1, 2 mM ATP; mean ± SEM, at least three experiments unless footnoted; pIC50 greater than 7.7 treat with caution
Sequence (P53667 330-637): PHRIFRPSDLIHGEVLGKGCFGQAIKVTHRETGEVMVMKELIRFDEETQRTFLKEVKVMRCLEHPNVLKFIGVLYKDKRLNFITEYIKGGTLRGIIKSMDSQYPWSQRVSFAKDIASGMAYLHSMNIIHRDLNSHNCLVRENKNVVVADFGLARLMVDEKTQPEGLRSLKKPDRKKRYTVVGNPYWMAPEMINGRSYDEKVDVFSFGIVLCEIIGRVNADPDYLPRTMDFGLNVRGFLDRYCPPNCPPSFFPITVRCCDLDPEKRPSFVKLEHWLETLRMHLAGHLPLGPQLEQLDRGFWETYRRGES
readout-kind: RapidFire pIC50 LIMK1

Answered cases to consult:
Cn1cc(-c2[nH]c3cc(NC(=O)[C@H](N)C4CCCCC4)cc4c3c2C=NNC4=O)cn1 6.09 ± 0.07
O=C(Nc1ncc(-c2cc(C(F)F)nn2-c2c(Cl)cccc2Cl)s1)C1CC1 7.75 ± 0.04
Cc1cc(Nc2cc(CN3CCOCC3)c3nc(C)c(Cc4ccc(Cl)cc4F)n3n2)n[nH]1 6.40 ± 0.03
CCc1cccc(CC)c1NC(=O)N1Cc2n[nH]c(NC(=O)c3ccc(N4CCN(C)CC4)cc3)c2C1 6.39 ± 0.03

stdin: Requested read-out: RapidFire pIC50 LIMK1. Entry: `CCNC(=O)Nc1ncc(-c2cc(-c3c(C)cc(OC)cc3C)nc(-c3cnccn3)n2)s1`
stdout: 7.25 ± 0.06

* * *

biological target: LIMK2 (NanoLuc LIMK2 kinase fusion) (Homo sapiens, UniProt P53671); construct: host or cells: HEK293; assay type: cell-based; settings: HEK293 cells, 2 h; mean ± SEM
Sequence (P53671 whole entry, the tested form may be a part): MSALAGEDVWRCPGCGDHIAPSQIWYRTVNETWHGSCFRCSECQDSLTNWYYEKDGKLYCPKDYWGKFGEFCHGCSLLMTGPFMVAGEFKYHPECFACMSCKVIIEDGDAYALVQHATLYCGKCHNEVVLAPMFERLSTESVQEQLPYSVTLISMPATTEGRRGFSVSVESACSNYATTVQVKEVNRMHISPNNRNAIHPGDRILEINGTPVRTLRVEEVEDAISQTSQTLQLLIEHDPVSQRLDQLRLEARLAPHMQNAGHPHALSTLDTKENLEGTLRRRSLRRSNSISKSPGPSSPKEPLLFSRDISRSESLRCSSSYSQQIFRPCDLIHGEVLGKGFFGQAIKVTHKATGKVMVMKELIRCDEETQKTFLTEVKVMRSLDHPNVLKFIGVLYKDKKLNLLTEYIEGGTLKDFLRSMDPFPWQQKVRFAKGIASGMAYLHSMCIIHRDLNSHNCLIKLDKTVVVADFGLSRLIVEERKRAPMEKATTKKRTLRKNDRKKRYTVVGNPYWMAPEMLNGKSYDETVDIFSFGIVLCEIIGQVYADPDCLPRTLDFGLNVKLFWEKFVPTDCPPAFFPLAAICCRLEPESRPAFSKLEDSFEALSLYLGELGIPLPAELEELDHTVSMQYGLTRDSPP
Marks after values point to notes of the source that are not given here.
Each entry below lists one item and its recorded NanoBRET pIC50 LIMK2 value.

compound	NanoBRET pIC50 LIMK2
Cc1c[nH]c2ncnc(N3CCC(CN)(C(=O)Nc4cccc(OC(=O)N(C)C)c4)CC3)c12 [Compound 7]	8.17 ^d
Cc1cc(Nc2nc(N[C@@H](C)c3ccc(F)cc3)c(C#N)cc2F)n[nH]1 [Compound 12]	<5
Cc1c[nH]c2ncnc(N3CCN(C(=O)Nc4cccc(OC(=O)N(C)C)c4)[C@@H](C)C3)c12 [Compound 6]	8.61 ± 0.04

Attention now shifts to the item below.
stdin: Requested read-out: NanoBRET pIC50 LIMK2. Entry: Cn1cc(-c2[nH]c3cc(NC(=O)[C@H](N)C4CCCCC4)cc4c3c2C=NNC4=O)cn1 [Compound 16]
stdout: 6.56 ± 0.02

* * *

test: Thermodynamic solubility; format: physicochemical; conditions: pH 7, PBS, 24 h room temperature; average of two experiments; read-out: aq. solubility
Each entry below lists one item and its recorded solubility at 24 h value.
// note: answer is a bare numeric in µM

stdin: Requested read-out: solubility at 24 h. Entry: Cc1c[nH]c2ncnc(N3CCC(CN)(C(=O)Nc4cccc(OC(=O)N(C)C)c4)CC3)c12 [Compound 7]
stdout: 451

stdin: Requested read-out: solubility at 24 h. Entry: Cc1c[nH]c2ncnc(-c3ccc(NC(=O)N(CCO)c4ccccc4)cc3)c12 [Compound 8]
stdout: 28

* * *

assay: In vivo DMPK, IV dosing; conditions: male, Sprague-Dawley, rat, 0.2 mg/kg
readout-kind: half-life (h)
// note: answer is a bare numeric in h

stdin: Requested read-out: half-life. Entry: `CC(C)C(=O)Nc1ncc(-c2cc(C(F)F)nn2-c2c(Cl)cccc2Cl)s1`
stdout: 1.1

* * *

assay: In vivo DMPK, IV dosing; conditions: male, Sprague-Dawley, rat, 1 mg/kg
readout-kind: Vd (L/kg)
// note: answer is a bare numeric in L/kg

stdin: Requested read-out: Vd. Entry: `Cc1c[nH]c2ncnc(-c3ccc(NC(=O)N(CCO)c4ccccc4)cc3)c12`
stdout: 0.5
